Provide the recorded abundance fitness for the entries that follow.
B1: Unconventional myosin-Ie, residues 1051 to 1108; numbered along this chain, Q12965 (parent)
chain: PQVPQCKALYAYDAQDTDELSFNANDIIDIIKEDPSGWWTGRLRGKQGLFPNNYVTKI

# Variants of: B1
# protocol_description: abundance fitness (aPCA) (normalised: wild type 0, dead -1); higher = more abundant; growth selection in yeast, the domain comes from the species named
# condition_notes: Homo sapiens
Please give the numeric answer without any surrounding text.

[in] Dear colleague, please send me the reported abundance fitness for N25Y when you can.
[out] -0.541

[in] Answer with the recorded abundance fitness of K7S only.
[out] -0.167

[in] Entry Q5S needs its abundance fitness filled in; supply it.
[out] -0.065

[in] Given the variant D18H , write its reported abundance fitness.
[out] -0.279

[in] Output abundance fitness of G48T
[out] -0.91

[in] Query abundance fitness for F50R
[out] -0.968

[in] Identify abundance fitness associated with the variant K7N
[out] -0.647

[in] Provide one value: measured abundance fitness of D26W
[out] -0.987

[in] Let me know recorded abundance fitness for A14P , thanks.
[out] -0.371

[in] Supply reported abundance fitness belonging to this variant: D29Q
[out] -0.241

[in] Report abundance fitness, nothing else, for this variant: S36F
[out] -0.279

[in] Give reported abundance fitness value for D16W
[out] -0.231

[in] Answer with the recorded abundance fitness for the variant listed here: A8W
[out] -1.03

[in] Recall and state the measured abundance fitness for T56C .
[out] -0.074

[in] Quote abundance fitness reported for W39L please.
[out] -0.512

[in] Given D34Y , respond with its abundance fitness.
[out] -0.27

[in] Annotate the variant F22H with its measured abundance fitness.
[out] -0.727

[in] Supply reported abundance fitness belonging to this variant: I31K
[out] -0.478

[in] Identify measured abundance fitness associated with E33A
[out] -0.236

[in] Name the recorded abundance fitness of the item L43V in your answer.
[out] -0.063

[in] For the variant A24V , give its measured abundance fitness value.
[out] -0.05

[in] Note down abundance fitness recorded for Q5I
[out] -0.072

[in] Please give the documented abundance fitness of Y54G
[out] -0.713

[in] Using known records, supply abundance fitness for R44L
[out] -0.164

[in] Determine from records and report abundance fitness for L43N
[out] -0.331

[in] Respond only with abundance fitness recorded for C6G
[out] 0

[in] Report measured abundance fitness; entry is G37A
[out] -0.573

[in] Return reported abundance fitness. Input variant: D16A
[out] -0.055

[in] For T40I , write its abundance fitness.
[out] -0.059

[in] Give the measured abundance fitness for T40N
[out] -0.382

[in] Output abundance fitness of S21A
[out] -0.263
